biological target: Bcl-2 protein (Recombinant Human Bcl-2 Protein) (Homo sapiens); construct: purchased Novus NBP2-34889; test: Binding evaluation of mixture library compounds to Bcl-2 using AS-MS (affinity selection mass spectrometry); conditions: n = 2
Sequence (P10415 whole entry): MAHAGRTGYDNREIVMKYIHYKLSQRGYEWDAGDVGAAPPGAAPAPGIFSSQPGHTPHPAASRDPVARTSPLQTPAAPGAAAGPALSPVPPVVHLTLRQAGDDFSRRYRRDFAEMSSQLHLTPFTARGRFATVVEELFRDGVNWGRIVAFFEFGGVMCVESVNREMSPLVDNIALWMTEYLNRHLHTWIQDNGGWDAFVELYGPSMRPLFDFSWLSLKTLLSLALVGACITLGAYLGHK
assayEndpoint: ASMS ratio (%)

molecule | assayEndpoint | recordedResult
CCOc1cncc(-c2cc(C(=O)N3CCN(c4ccc(C(=O)NS(=O)(=O)CCC(F)(F)F)nn4)CC3)cc(C(F)(F)F)c2)c1 | ASMS ratio (%) | 1.0
CCOc1cncc(-c2ccc(CN3CCN(c4ccc(C(=O)NS(C)(=O)=O)cc4)CC3)c3ccccc23)c1 | ASMS ratio (%) | 0.0
CCOc1cncc(-c2cc(CN3CCN(c4ccc(C(=O)NS(=O)(=O)CCC(F)(F)F)cc4)CC3)cc(OCC)c2)c1 | ASMS ratio (%) | 0.0
CCOc1cncc(-c2ccc(CN3CCN(c4ccc(C(=O)NS(=O)(=O)C(C)(C)C)nn4)CC3)c(CC)c2)c1 | ASMS ratio (%) | −0.3
CCOc1cccc(-c2ccc(CN3CCN(c4ccc(C(=O)NS(=O)(=O)CCC(F)(F)F)cc4)CC3)c3ccccc23)c1 | ASMS ratio (%) | 0.0
CCOc1cncc(-c2ccc(CN3CCN(c4ccc(C(=O)NS(=O)(=O)C(C)(C)C)cc4)CC3)c(OC)c2)c1 | ASMS ratio (%) | 0.0
CCOc1cncc(-c2ccc(C(C)N3CCN(c4ccc(C(=O)NS(=O)(=O)c5ccc(NCCSc6ccccc6)c(C(F)(F)F)c5)cc4)CC3)cc2)c1 (centres unmarked) | ASMS ratio (%) | 7.5
CCOc1cncc(-c2ccccc2CCC(=O)N2CCN(c3ccc(C(=O)NS(=O)(=O)c4ccc(NCCSc5ccccc5)c(C(F)(F)F)c4)cc3)CC2)c1 | ASMS ratio (%) | −1.3
CCOc1cccc(-c2ccccc2CCC(=O)N2CCN(c3ccc(C(=O)NS(=O)(=O)CCC(F)(F)F)nn3)CC2)c1 | ASMS ratio (%) | 0.0
CCOc1cncc(C#Cc2ccccc2CN2CCN(c3ccc(C(=O)NS(C)(=O)=O)nn3)CC2)c1 | ASMS ratio (%) | 0.0
CCOc1cccc(-c2cc(CN3CCN(c4ccc(C(=O)NS(=O)(=O)C(C)(C)C)nn4)CC3)cc(OC(C)C)c2)c1 | ASMS ratio (%) | 0.0
CCOc1cncc(-c2cc(CN3CCN(c4ccc(C(=O)NS(C)(=O)=O)cc4)CC3)cc(C(F)(F)F)c2)c1 | ASMS ratio (%) | 0.0
CCOc1cccc(-c2ccc(CN3CCN(c4ccc(C(=O)NS(C)(=O)=O)cc4)CC3)c(CC)c2)c1 | ASMS ratio (%) | 0.0
CCOc1cncc(-c2ccc(CN3CCN(c4ccc(C(=O)NS(=O)(=O)CCC(F)(F)F)cc4)CC3)c(OC)c2)c1 | ASMS ratio (%) | 0.0

###

Reported ASMS ratio (%) n = 2 by item:
target: Bcl-2 protein (Recombinant Human Bcl-2 Protein) (Homo sapiens); construct: purchased Novus NBP2-34889; test: Binding evaluation of mixture library compounds to Bcl-2 using AS-MS (affinity selection mass spectrometry); conditions: AS-MS, mixture of 1200 compounds, Bcl-2; ASMS Ratio(%)=(A−C)/B×100; replicate n = 2

structureString | assayTarget | ASMS ratio (%) n = 2
CCOc1cncc(-c2ccccc2CCC(=O)N2CCN(c3ccc(C(=O)NCC45CC6CC(CC(C6)C4)C5)cc3)CC2)c1 | Bcl-2 protein (Recombinant Human Bcl-2 Protein) (Homo sapiens) | −3.2
CCOc1cccc(C#Cc2cc(C(=O)N3CCN(c4ccc(C(=O)NCC(F)(F)F)cc4)CC3)cc(C(F)(F)F)c2)c1 | Bcl-2 protein (Recombinant Human Bcl-2 Protein) (Homo sapiens) | 0.0
CCOc1cncc(-c2ccccc2CN2CCN(c3ccc(C(=O)NCC(F)(F)F)nn3)CC2)c1 | Bcl-2 protein (Recombinant Human Bcl-2 Protein) (Homo sapiens) | 1.7
CCCNC(=O)c1ccc(N2CCN(Cc3ccc(-c4cccc(OCC)c4)c(C)c3)CC2)cc1 | Bcl-2 protein (Recombinant Human Bcl-2 Protein) (Homo sapiens) | −1.5
CCOc1cncc(C#Cc2cc(C(=O)N3CCN(c4ccc(C(=O)NCC(F)(F)F)nn4)CC3)cc(C(F)(F)F)c2)c1 | Bcl-2 protein (Recombinant Human Bcl-2 Protein) (Homo sapiens) | −3.8
CCOc1cccc(-c2ccccc2CN2CCN(c3ccc(C(=O)NCC(F)(F)F)cc3)CC2)c1 | Bcl-2 protein (Recombinant Human Bcl-2 Protein) (Homo sapiens) | −0.1
CCOc1cccc(-c2cc(CN3CCN(c4ccc(C(=O)NCC56CC7CC(CC(C7)C5)C6)cc4)CC3)cc(OC(F)(F)F)c2)c1 | Bcl-2 protein (Recombinant Human Bcl-2 Protein) (Homo sapiens) | −11.0
CCOc1cccc(-c2cc(OC)c(CN3CCN(c4ccc(C(=O)NCC(F)(F)F)nn4)CC3)c(OC)c2)c1 | Bcl-2 protein (Recombinant Human Bcl-2 Protein) (Homo sapiens) | −0.2
CCOc1cncc(C#Cc2ccccc2CN2CCN(c3ccc(C(=O)NCC(F)(F)F)cc3)CC2)c1 | Bcl-2 protein (Recombinant Human Bcl-2 Protein) (Homo sapiens) | 0.0
CCOc1cccc(-c2ccccc2CCC(=O)N2CCN(c3ccc(C(=O)NCC45CC6CC(CC(C6)C4)C5)nn3)CC2)c1 | Bcl-2 protein (Recombinant Human Bcl-2 Protein) (Homo sapiens) | −13.2
CCOc1cncc(-c2cc(CN3CCN(c4ccc(C(=O)NCC56CC7CC(CC(C7)C5)C6)nn4)CC3)cc(OC(F)(F)F)c2)c1 | Bcl-2 protein (Recombinant Human Bcl-2 Protein) (Homo sapiens) | −1.0
CCOc1cncc(-c2cc(CN3CCN(c4ccc(C(=O)NCC56CC7CC(CC(C7)C5)C6)nn4)CC3)cc(C(F)(F)F)c2)c1 | Bcl-2 protein (Recombinant Human Bcl-2 Protein) (Homo sapiens) | −7.1
CCOc1cncc(C#Cc2cncc(C(=O)N3CCN(c4ccc(C(=O)NCC56CC7CC(CC(C7)C5)C6)cc4)CC3)c2)c1 | Bcl-2 protein (Recombinant Human Bcl-2 Protein) (Homo sapiens) | −9.1
CCOc1cccc(-c2csc(C(=O)N3CCN(c4ccc(C(=O)NCC(F)(F)F)nn4)CC3)c2)c1 | Bcl-2 protein (Recombinant Human Bcl-2 Protein) (Homo sapiens) | 0.0
